conditions: [M+H]+; instrument: DT; single field, calibrated with ESI Low Concentration Tuning Mix (Agilent)
Readout Name: collision cross section (N2) (Å²)
Give just the numeric value; Å² need not be written.

The examples below pair each entry with its known result.
C[C@H](CCC(=O)NCC(=O)O)[C@H]1CC[C@H]2[C@@H]3[C@H](O)C[C@@H]4C[C@H](O)CC[C@]4(C)[C@H]3CC[C@]12C [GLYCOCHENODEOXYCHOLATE] :: 196.8
N[C@@H]1C(O)O[C@H](CO)[C@@H](O)[C@@H]1O (stereo partly drawn) [D-MANNOSAMINE] :: 138.1
Nc1ncnc2c1ncn2[C@@H]1O[C@H](COP(=O)(O)OP(=O)(O)O)[C@@H](O)[C@H]1O [ADENOSINE 5'-DIPHOSPHATE] :: 187

According to the records, this molecule N[C@@H](Cc1ccc(O)c(O)c1)C(=O)O [L-DOPA] displays collision cross section (N2) of 149.4

According to the records, this molecule NC(N)=NCCCC(=O)O [4-GUANIDINOBUTANOATE] displays collision cross section (N2) of 130

----------
conditions: [M+H]+; instrument: TW; calibrated with polyalanine and drug standards
Readout Name: collision cross section (N2)

According to the records, this molecule O=C(/C=C/c1ccccc1)c1ccc(O)cc1O [2',4'-DIHYDROXYCHALCONE] displays collision cross section (N2) of 153.5 Å²

According to the records, this molecule O=C(O)CCCN1C(=O)c2cccc3cccc(c23)C1=O displays collision cross section (N2) of 156.5 Å²

According to the records, this molecule CCn1cc(C(=O)O)c(=O)c2ccc(C)nc21 displays collision cross section (N2) of 145.3 Å²

----------
Quick reference: collision cross section (N2) of the listed items.
details: [M+H]+; instrument: DT; single field, calibrated with Agilent tune mix (Agilent)
Give just the numeric value; Å² need not be written.

The examples below pair each entry with its known result.
Nc1nc(=O)c2ncn([C@@H]3O[C@@H]4COP(=O)(O)O[C@H]4[C@H]3O)c2[nH]1 :: 172.8
CC(=O)NCCCC[C@H](N)C(=O)O :: 142.3

Now consider the entry below.
According to the records, this molecule O=C(O)c1ccc(=O)[nH]c1 [6-Hydroxynicotinic acid] displays collision cross section (N2) of 129.5

----------
details: [M-H]-; instrument: DT; single field, calibrated with Agilent tune mix (Agilent)
Quick reference: collision cross section (N2) of the listed items.
Give just the numeric value; Å² need not be written.

Cn1c(=O)[nH]c(=O)c2[nH]c(=O)[nH]c21 :: 128.86
CC1=C(C/C=C(\C)CCC[C@H](C)CCC[C@H](C)CCCC(C)C)C(=O)c2ccccc2C1=O [Vitamin K1] :: 210.94
CCCCCCCCCCCCCC[C@@H](O)[C@@H](O)[C@@H](N)CO :: 180.68
CCCCCCCCCCCCCCCCCCCCCCCC(=O)O :: 197.93
CC(CC(=O)O)CC(=O)O :: 122.88

Now consider the entry below.
According to the records, this compound CC/C=C\C/C=C\C/C=C\CCCCCCCC(=O)O displays collision cross section (N2) of 173.07

----------
settings: [M+H-H2O]+; instrument: TW; calibrated with phosphatidylcholines (ESI+) and phosphatidylethanolamines (ESI-)
Readout Name: collision cross section (N2) (Å²)
Give just the numeric value; Å² need not be written.

The examples below pair each entry with its known result.
CCCCCCCCCCCCCCCC(=O)O[C@@H](CO)COC(=O)CCCCCCCCCCC :: 242.3
CCCCCCCC/C=C\CCCCCCCC(=O)OC[C@H](COP(=O)(O)O[C@H]1C(O)C(O)C(O)[C@@H](OP(=O)(O)O)C1O)OC(=O)CCCCCCC/C=C\CCCCCCCC (stereo partly drawn) :: 295.5

Now consider the entry below.
According to the records, this compound CCCCCCCCCCCCCCCCCCCCCC(=O)O[C@@H](CO)COC(=O)CCCCCCCCCCCCC displays collision cross section (N2) of 270.5
